target: Estrogen receptor beta (Homo sapiens) (UniProt Q92731); test: qHTS assay to identify small molecule agonists of the estrogen receptor beta (ER-beta) signaling pathway (AID 1259377); conditions: ER-beta-UAS-bla HEK293T, beta-lactamase FRET ratio, 16 h; series mostly up to 92.4 µM
Sequence (Q92731 whole entry, looked up): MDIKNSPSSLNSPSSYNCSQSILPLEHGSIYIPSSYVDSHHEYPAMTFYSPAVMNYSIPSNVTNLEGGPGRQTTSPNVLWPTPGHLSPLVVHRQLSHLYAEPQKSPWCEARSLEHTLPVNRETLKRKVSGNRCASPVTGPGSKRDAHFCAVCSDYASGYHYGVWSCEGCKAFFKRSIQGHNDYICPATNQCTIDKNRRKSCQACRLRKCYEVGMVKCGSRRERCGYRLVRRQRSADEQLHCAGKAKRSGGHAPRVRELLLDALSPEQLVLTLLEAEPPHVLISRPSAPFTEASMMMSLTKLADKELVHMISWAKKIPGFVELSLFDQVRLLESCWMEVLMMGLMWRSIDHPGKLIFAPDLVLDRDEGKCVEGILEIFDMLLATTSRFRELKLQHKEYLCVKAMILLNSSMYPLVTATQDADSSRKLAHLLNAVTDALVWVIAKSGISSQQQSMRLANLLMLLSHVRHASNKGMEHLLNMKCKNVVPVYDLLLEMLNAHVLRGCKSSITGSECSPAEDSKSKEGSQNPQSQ
Inconclusive results are not listed. Activity calls are given as the source filed them. Calls follow the shape of the dose curve; as a rule, active = well fitted activation curve with a large enough effect in the signal ratio in the repeat runs (not every such curve was filed as active); inconclusive = weak or mixed curves, or effect the other way; inactive = flat fitted curve, though single readings scatter; the % refers to the signal ratio.
MEASURED_PARAMETER: activation

Take a look at these entries with their results.
>>> reported_measurement("Cn1cnc2c(F)c(Nc3ccc(Br)cc3Cl)c(C(=O)NOCCO)cc21")
"inactive"
>>> reported_measurement("C=O")
"inactive"
>>> reported_measurement("CC1(O)CSC(C)(O)CS1 (configuration not stated)")
"inactive"
>>> reported_measurement("O=C1CCC(C2CCCCC2)CC1")
"inactive"
>>> reported_measurement("CC(=O)Oc1cc(C(C)C)c(OCCN(C)C)cc1C")
"inactive"

INPUT: Return reported activation; argument: Cc1c(-c2ccccc2)oc2c(C(=O)OCCN3CCCCC3)cccc2c1=O
OUTPUT: inactive

INPUT: What value of activation has been reported for the following compound? Cc1ccc(C=O)s1
OUTPUT: inactive

Where do these numbers come from? They come from PubChem BioAssay (Tox21).
